Target: ATP-dependent translocase ABCB1 (Homo sapiens, UniProt P08183)
Sequence (P08183 whole entry): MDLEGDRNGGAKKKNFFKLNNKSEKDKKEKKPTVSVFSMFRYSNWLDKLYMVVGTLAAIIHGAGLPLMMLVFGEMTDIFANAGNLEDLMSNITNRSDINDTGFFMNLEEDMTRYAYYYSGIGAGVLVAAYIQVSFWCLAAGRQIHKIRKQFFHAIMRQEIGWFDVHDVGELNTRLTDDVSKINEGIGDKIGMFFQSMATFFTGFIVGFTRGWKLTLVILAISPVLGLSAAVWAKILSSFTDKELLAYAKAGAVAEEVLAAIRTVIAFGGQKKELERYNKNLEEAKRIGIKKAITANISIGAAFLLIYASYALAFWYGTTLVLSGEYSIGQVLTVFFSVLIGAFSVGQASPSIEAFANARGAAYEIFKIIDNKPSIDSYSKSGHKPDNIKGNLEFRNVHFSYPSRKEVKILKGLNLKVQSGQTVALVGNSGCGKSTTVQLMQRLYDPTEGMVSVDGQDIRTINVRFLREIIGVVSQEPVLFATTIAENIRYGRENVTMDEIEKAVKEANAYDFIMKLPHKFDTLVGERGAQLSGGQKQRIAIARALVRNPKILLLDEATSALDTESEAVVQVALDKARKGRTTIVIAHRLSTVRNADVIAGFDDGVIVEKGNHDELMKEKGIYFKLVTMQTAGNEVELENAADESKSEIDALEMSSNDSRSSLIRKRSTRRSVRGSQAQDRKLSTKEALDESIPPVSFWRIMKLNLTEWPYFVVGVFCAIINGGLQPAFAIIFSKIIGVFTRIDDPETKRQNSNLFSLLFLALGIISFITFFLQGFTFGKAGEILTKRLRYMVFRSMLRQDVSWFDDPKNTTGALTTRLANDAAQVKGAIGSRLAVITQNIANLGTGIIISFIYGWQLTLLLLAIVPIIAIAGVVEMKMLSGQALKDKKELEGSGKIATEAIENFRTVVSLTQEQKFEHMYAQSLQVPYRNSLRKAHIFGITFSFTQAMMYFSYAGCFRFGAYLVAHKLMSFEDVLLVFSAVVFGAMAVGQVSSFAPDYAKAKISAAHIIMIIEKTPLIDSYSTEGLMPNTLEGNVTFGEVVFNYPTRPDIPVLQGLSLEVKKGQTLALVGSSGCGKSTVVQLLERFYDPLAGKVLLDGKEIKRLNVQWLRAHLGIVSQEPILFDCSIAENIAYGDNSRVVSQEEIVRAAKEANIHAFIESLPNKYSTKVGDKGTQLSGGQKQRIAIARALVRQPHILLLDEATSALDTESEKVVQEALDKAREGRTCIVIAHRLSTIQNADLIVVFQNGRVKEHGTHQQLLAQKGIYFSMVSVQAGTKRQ
Experiment: Inhibition of human MDR1 expressed in MDCK cells assessed as calcein AM accumulation after 30 mins by fluorescence assay
Type: cell-based
Details: read-out: IC50
# note: boundary value 7 µM maps to Condition not met; IC50 below it maps to Condition met

Compound | Classification
COc1cc(C(=O)Nc2ccc(-c3ccccc3)cc2F)cc(O)c1O | Condition not met
COc1cc(C(=O)Nc2ccc(-c3ccccc3)cc2[N+](=O)[O-])cc(OC)c1OC | Condition not met
COc1cc(C(=O)Nc2ccc(-c3ccccc3)cc2NC(C)=O)cc(OC)c1OC | Condition met
COc1cc(C(=O)Nc2ccc(-c3ccccc3)cc2)cc(OC)c1OC | Condition not met
COc1ccc(CCN(C)CCCC(C#N)(c2ccc(O)c(O)c2)C(C)C)cc1OC (racemic) | Condition not met
COc1cc(C(=O)Nc2ccc(-c3ccccc3)cc2)cc(O)c1O | Condition not met
COc1cc(OC)cc(C(=O)Nc2ccc(-c3ccccc3)cc2[N+](=O)[O-])c1 | Condition met
COc1cc(C(=O)Nc2ccc(Br)cc2[N+](=O)[O-])cc(O)c1O | Condition not met
COc1cc(C(=O)Nc2ccc(-c3cccc(C(C)=O)c3)cc2[N+](=O)[O-])cc(OC)c1OC | Condition met
COc1cc(CNc2ccc(-c3ccccc3)cc2[N+](=O)[O-])cc(OC)c1OC | Condition met
